Ref: patent US20140294731A1

molecular target: T1, T3.30: Biotin-LC linker-GVYKS[PO3H2]PVVSGDTS[PO3H2]PRHL-NH2 (reading uncertain; also: printed as Biotin-LC linker-GVYKS[PO3H2]PVVSGDTS[PO3H2]PRHL-NH2); experiment: SPR (Biacore X), T3.30 on streptavidin chip, antibody injected, 1:1 Langmuir fit; peptide lot 87% pure
T1 construct: Human Tau 393-408 with an added N-terminal Gly; two lots used: MI89P9-P12-2 (64% pure) and MI89P9-P12-3 (87% pure); also called Phospho-tau peptide; phosphopeptide T3.30
T1 peptide: {Biotin-LC linker}-GVYK[pS]PVVSGDT[pS]PRHL-NH2
[ ]: non-standard residue; d: D form. The star is where a group is joined. Biotin = O=C1N[C@H]2[C@H](CS[C@H]2CCCCC(=O)*)N1; pS = N[C@@H](COP(=O)(O)O)C(=O)O; LC linker = not defined here
assay readout: koff (s⁻¹)
Express it in s⁻¹; write the number only.

# annotated cases, reported koff shown
ACI-35-2A1-Ab1 (antibody, IgG2b, V domains shown, Biotinylated (-BT) in the AlphaLISA and as detector in the Setup 1 ELISA; also called ACl-35-2A1-Ab1; hybridoma A4-2A1-18) VH: EVQLQQSGPELVKPGASVKISCKASGYTFTDYYMNWVKQSHGKSLEWIGDINPNNGGTSYNQKFKGKATLTVDKSSSTAYMELRSLTSEDSAVYYCVREGRFAYWGHGTLVTVSA VL: DIVMTQAAPSVPVTPGESVSISCRSSKSLLHSNGNTYLYWFLQRPGQSPQLLIHRMSNLASGVPDRFSGSGSGTAFTLRISRVEAEDVGVYYCMQHLKSPYTFGGGTKLEIK
0.001
ACI-35-2G5-Ab3 (antibody, IgG2b, V domains shown, Biotinylated (-BT) in the AlphaLISA and as detector in the Setup 1 ELISA; also called ACl-35-2G5-Ab3; ACl-35-2G5-AB3) VH: EVQLQQSGPELVKPGASVKISCKASGFTFTDYYMNWVKQSHGKSLEWIGDINPNNGGTSYHQKFKGKATLTVDKSSSTAYMELRSLTSEDSAVYYCVREGRFAYWGQGTLVTVSA VL: DIVMTQSQKFMSTSVGDRVSVTCKASQNVGTNVAWYQQKPGQSPKALIYSASYRYSGVPDRFTGSGSGTDFTLTISNVQSEDLAEYFCQQYNSYPYTFGGGTKLEIK
3.8e-05
ACI-35-2G5-Ab2 (antibody, IgG2b, V domains shown, also called ACl-35-2G5-Ab2; ACl-35-2G5-AB2) VH: EVQLQQSGPELVKPGASVKISCKASGFTFTDYYMNWVKQSHGKSLEWIGDINPNNGGTSYHQKFKGKATLTVDKSSSTAYMELRSLTSEDSAVYYCVREGRFAYWGQGTLVTVSA VL: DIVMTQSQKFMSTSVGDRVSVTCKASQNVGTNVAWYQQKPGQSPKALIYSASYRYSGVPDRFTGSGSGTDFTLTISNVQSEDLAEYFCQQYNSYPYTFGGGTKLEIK
0.00023
ACI-35-4A6-Ab1 (antibody, IgG2b, V domains shown, also called ACl-35-4A6-Ab1; hybridoma A4-4A6-18) VH: QVQLQQPGAELLKPGASVKLSCKASGYTFTSYWMHWVKQRPGRGLEWIGRIDPNSDRTKYNEKFKRKATLTVDKSSSTAYMQLSSLTSEDSAVYYCARDDYAWFAYWGQGTLVTVSA VL: DVLMTQTPLSLPVSLGDQASISCRSSQSIVHSNGNTYLEWYLQKPGQSPKLLIYKLSNRFSGVPDRFSGSGSGTDFTLKISRVEAEDLGVYYCFQGSHVPPTFGGGTKLEIK
0.0017

# evaluate next
// query koff value for entry ACI-35-2G5-Ab1 (antibody, IgG2a, V domains shown, also called ACl-35-2G5-Ab1; ACl-35-2G5-AB1) VH: QVQLKQSGAELVRPGASVKLSCKASGYTFTDYYINWVKQRPGQGLEWIARIYPGRGNIYYNEKFKGKATLTAEKSSSTAYMQLSSLTSEDSAVYFCARFWDVTYWGQGTLVTVSA VL: DVLMTQTPLSLPVSLGDQASISCRSSQSIVHSNGNTYLEWFLQKPGQSPKLLIYKVSNRFSGVPDRFSGSGSGTDFTLKISRVEAEDLGVYYCFQGSHVPYTFGGGTKLEIK
0.0022
